molecular target: human GLP-1 receptor (human, UniProt P43220 24-463); experiment: cell-based or functional assay
Numbered stars: 1 amine (or outer) side, 2 acyl side, 3 side chain; on linkers, the order of the positions; unused ones are H or OH. Square brackets hold non-standard residues; d marks the D form. Side chains are listed from the residue outwards. Ends that are not written are not given here. γGlu = O=C(O)[C@H](CCC(=O)[*:2])N[*:1]; x53 = not defined here; Aib = CC(C)(N)C(=O)O
Test readout: EC50 hGLP-1R (cAMP)

HXQGTFTSDLSKQMESRRAQDFIEWLKAGGPSSGAPPPS (dSer at 2; C-terminal NH2) [SEQ ID NO: 184]	85.7 pM
HXQGTFTSDLSKQKESRRAXDFIEWLKAGGPSSGAPPPS (dSer at 2; K(γE-x53) at 14; Aib at 20; C-terminal NH2) [SEQ ID NO: 75]	11.1 pM
HXQGTFTSDLSKQMDSRRAQDFIEWLKAGGPSSGAPPPS (dSer at 2; C-terminal NH2) [SEQ ID NO: 188]	89.6 pM
HXQGTFTSDLSKQMDSRRAQDFIEWLKXGGPSSGAPPPS (dSer at 2; Aib at 28; C-terminal NH2) [SEQ ID NO: 187]	152 pM

# map each binder to its EC50 hGLP-1R (cAMP)
1. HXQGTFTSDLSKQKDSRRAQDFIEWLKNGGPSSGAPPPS (dSer at 2; C-terminal NH2) [SEQ ID NO: 183]
2. H[Aib]QGTFTSDLSKQK([γGlu-x53])DSRRAQDFIEWLKNGGPSSGAPPPS-NH2 (reading uncertain) [SEQ ID NO: 115]

1020 pM
2.4 pM
